target: UniProt:P34707; format: functional
Sequence (P34707 whole entry): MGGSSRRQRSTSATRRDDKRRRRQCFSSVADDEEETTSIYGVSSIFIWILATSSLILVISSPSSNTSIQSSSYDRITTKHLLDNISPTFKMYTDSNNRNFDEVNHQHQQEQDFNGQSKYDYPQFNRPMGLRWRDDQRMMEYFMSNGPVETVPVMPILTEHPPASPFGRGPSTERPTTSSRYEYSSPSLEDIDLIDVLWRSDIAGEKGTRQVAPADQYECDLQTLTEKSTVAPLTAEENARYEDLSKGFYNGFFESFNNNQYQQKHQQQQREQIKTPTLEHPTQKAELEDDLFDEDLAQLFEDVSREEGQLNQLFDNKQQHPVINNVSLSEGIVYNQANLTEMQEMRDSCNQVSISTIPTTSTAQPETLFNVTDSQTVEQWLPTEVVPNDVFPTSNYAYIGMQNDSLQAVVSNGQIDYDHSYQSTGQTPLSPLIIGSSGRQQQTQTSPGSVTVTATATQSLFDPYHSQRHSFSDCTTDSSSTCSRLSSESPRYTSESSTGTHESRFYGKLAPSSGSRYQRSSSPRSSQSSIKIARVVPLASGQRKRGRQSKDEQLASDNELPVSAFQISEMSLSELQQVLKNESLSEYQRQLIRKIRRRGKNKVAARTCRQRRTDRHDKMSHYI
Activity calls are given as the source filed them.
QUANTITY: IC50

- RECORD SMILES: "C(=C1c2ccccc2-c2ccccc21)c1ccncc1"
  IC50: "> 100 µM (inactive)"
- RECORD SMILES: "Brc1ccc(OCc2cn3ccccc3n2)cc1"
  IC50: "41.9 µM (active)"
- RECORD SMILES: "C#Cc1cccc(-n2nnc(C(=O)OC)c2-c2ccccc2)c1"
  IC50: "> 100 µM (inactive)"

So, O=[N+]([O-])c1ccc2nc(-c3ccccc3)oc2c1 ? Its IC50 was 63.6 µM (inactive)

So, COc1ccc(NC(=O)Nc2ccc(N3CCOCC3)c3nonc23)c(OC)c1 ? Its IC50 was > 100 µM (inactive)

----------
Catalogue of AC50 values
test system: INS1; test: beta cell apoptosis inhibitors, cytokine rescue, dose response, luminescence, retest (AID 449756); type: functional, cell-based; settings: Rattus norvegicus;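 note: cell death triggered by IL-1 beta plus TNF-alpha plus IFN-gamma mixture; protective hits raise ATP signal compared with cytokine alone wells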
Activity calls are given as the source filed them.

Illustrative cases are given below, each with its answer.
- COMPOUND: "COC(=O)c1cc(=O)n(CCc2ccccc2F)/c(=N/c2ccc(F)c(Cl)c2)s1"
  AC50: "8.13 µM (active)"
- COMPOUND: "Cc1ccccc1OCc1n(CC(=O)OC2CC(C)CCC2C(C)C)c2ccccc2[n+]1C.[Cl-] (centres undefined)"
  AC50: "3.39 µM (active)"
- COMPOUND: "COc1ccc(CCNc2ccc(C(CC(N)=O)NC(=O)c3ccc(Br)cc3)cc2[N+](=O)[O-])cc1 (centres undefined)"
  AC50: "12.9 µM (active)"

Then this compound:
So, COCCC1CCCCN1C(=O)c1cc(COc2ccc(-n3cncn3)cc2)on1 (centres undefined) ? Its AC50 was 3.08 µM (active)

----------
target: Cytochrome P450 2C19 (Homo sapiens, UniProt P33261); experiment: Cytochrome panel assay with activity outcomes. Panel member name: p450-cyp2c19 Compounds with AC50 equal or less than 10 uM are considered active; assay type: functional; conditions: read-out: AC50
Sequence (P33261 whole entry): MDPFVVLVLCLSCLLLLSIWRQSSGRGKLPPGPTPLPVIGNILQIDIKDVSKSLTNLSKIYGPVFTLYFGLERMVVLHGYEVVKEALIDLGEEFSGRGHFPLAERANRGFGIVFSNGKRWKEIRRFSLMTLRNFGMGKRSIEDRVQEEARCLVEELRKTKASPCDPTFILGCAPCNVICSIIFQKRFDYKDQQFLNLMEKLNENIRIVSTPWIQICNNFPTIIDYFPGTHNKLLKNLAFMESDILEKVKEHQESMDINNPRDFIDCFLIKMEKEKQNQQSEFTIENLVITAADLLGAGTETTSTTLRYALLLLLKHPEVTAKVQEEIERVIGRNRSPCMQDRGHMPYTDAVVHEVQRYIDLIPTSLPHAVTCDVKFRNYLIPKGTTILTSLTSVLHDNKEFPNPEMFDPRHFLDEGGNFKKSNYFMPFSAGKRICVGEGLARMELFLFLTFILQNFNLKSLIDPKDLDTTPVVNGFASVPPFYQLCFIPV
Catalogue of AC50 values

- MOLECULE: "Cc1ccc2nc(-c3cccnc3)oc2c1"
  TARGET OR SYSTEM: "Cytochrome P450 2C19 (Homo sapiens, UniProt P33261)"
  RECORDED VALUE: "28.2 µM (inconclusive)"
- MOLECULE: "C[n+]1cn(CC(O)COCc2ccccc2)c2ccccc21 (stereo unspecified)"
  TARGET OR SYSTEM: "Cytochrome P450 2C19 (Homo sapiens, UniProt P33261)"
  RECORDED VALUE: "15.8 µM (inconclusive)"
- MOLECULE: "CN[C@@H](c1ccncc1)[C@@H](NC)c1ccncc1"
  TARGET OR SYSTEM: "Cytochrome P450 2C19 (Homo sapiens, UniProt P33261)"
  RECORDED VALUE: "3.16 µM (inconclusive)"
- MOLECULE: "Cc1ccc(N[C@H](c2ccccc2)c2ccc3cccnc3c2O)cc1"
  TARGET OR SYSTEM: "Cytochrome P450 2C19 (Homo sapiens, UniProt P33261)"
  RECORDED VALUE: "3.98 µM (inconclusive)"
- MOLECULE: "Nc1ccc(C(=O)N/N=C/c2ccccc2)cc1"
  TARGET OR SYSTEM: "Cytochrome P450 2C19 (Homo sapiens, UniProt P33261)"
  RECORDED VALUE: "15.8 µM (inconclusive)"

Then this molecule:
So, COCCn1c(=O)c(-c2ccccc2)nc2cnc(OCc3ccccc3)nc21 ? Its AC50 was 20 µM (inconclusive)
